# assay protocol: Chemical stability of the compound in at pH 7.4 measured at 72 hrs by HPLC based non-enzymatic stability assay
# Type: physicochemical
# experimental context: buffer, read-out: Stability
The entries below come with measured remaining at 72 h values attached.
// return numeric value only (unit: %, not printed)

The cases that follow already have their remaining at 72 h on record.
Q: Consider the compound `Cc1ncsc1-c1ccc(CNC(=O)[C@@H]2C[C@@H](O)CN2C(=O)[C@@H](NC(=O)CCCCCNS(=O)(=O)c2ccc(-c3cnc(N)c(C(=O)Nc4ccccc4)n3)cc2)C(C)(C)C)cc1` . State its measured remaining at 72 h.
A: 100

Q: Consider the compound CNCc1ccc(-c2nnc(-c3nc(-c4ccc(S(=O)(=O)NCCCCC(=O)N5CCN(c6ccc7c(c6)C(=O)N(C6CCC(=O)NC6=O)C7=O)CC5)cc4)cnc3N)o2)cc1 (stereo unspecified) . State its measured remaining at 72 h.
A: 74

Q: Consider the compound Nc1ncc(-c2ccc(S(=O)(=O)NCCCCCCC(=O)NCCCC#Cc3cccc4c3CN(C3CCC(=O)NC3=O)C4=O)cc2)nc1C(=O)Nc1ccccc1 (stereo unspecified) . State its measured remaining at 72 h.
A: 109

Q: Consider the compound `Cc1ncsc1-c1ccc(CNC(=O)[C@@H]2C[C@@H](O)CN2C(=O)[C@@H](NC(=O)CCOCCOCCNS(=O)(=O)c2ccc(-c3cnc(N)c(C(=O)Nc4ccccc4)n3)cc2)C(C)(C)C)cc1` . State its measured remaining at 72 h.
A: 102

Next:
Q: Consider the compound CNCc1ccc(-c2nnc(-c3nc(-c4ccc(S(=O)(=O)NCCCCCC(=O)NCC#Cc5cccc6c5CN(C5CCC(=O)NC5=O)C6=O)cc4)cnc3N)o2)cc1 (stereo unspecified) . State its measured remaining at 72 h.
A: 100

Q: Consider the compound CNCc1ccc(-c2nnc(-c3nc(-c4ccc(S(=O)(=O)NCCCCCCC(=O)NCCCC#Cc5cccc6c5CN(C5CCC(=O)NC5=O)C6=O)cc4)cnc3N)o2)cc1 (stereo unspecified) . State its measured remaining at 72 h.
A: 93
